For each of the binders below, state its pKd.
Target: T1, QCD-32g58 SLP (surface layer protein of C. difficile strain QCD-32g58, HMW and LMW subunits) (Clostridioides difficile QCD-32g58 …, UniProt A0A9R0BMB3, strain)
T1 construct: low-molecular-weight (LMW) subunit of the surface layer protein, cut from the precursor SlpA by Cwp84, C. difficile strain QCD-32g58 (ribotype 027); predicted mass 33.9 kDa; high-molecular-weight (HMW) subunit of the surface layer protein, cut from the precursor SlpA by Cwp84, C. difficile strain QCD-32g58 (ribotype 027); predicted mass 44.2 kDa; Both subunits come from one precursor, SlpA; also …
Test: SPR; Biacore 3000; SEC-purified QCD-32g58 SLP amine-coupled to a CM5 chip, VHH monomer fractions injected at various concentrations; 25 °C, 10 mM HEPES pH 7.4, 150 mM NaCl, 3 mM EDTA, 0.005 % P20; KD by steady-state analysis
Conditions: both partners purified
FYI, pKd means -log10 of a concentration in mol per litre.

Challenge: State the recorded pKd for this entry: SLP_VHH49 (VHH, From an immune llama phage display library panned on QCD-32g58 SLP; source: monomeric SEC fractions for SPR; not shown: His6, C-terminal, kept) VHH: QVKLEESGGGLVQAGGSLRLSCAASEGAFSDALSRHAAGWFRQAPGKEREFVAAISWNGANTDYKNSVNNRFTISRDTSKNTVYLQMNSLKPEDTAVYYCAAKNEPSWISRIYYRGLEYDYWGQGTQVTVSS
Response given: 7.32

Challenge: Can you check SLP_VHH2 (VHH, From an immune llama phage display library panned on QCD-32g58 SLP; source: monomeric SEC fractions for SPR; not shown: His6, C-terminal, kept) VHH: QVKLEESGGGLVQPGGSLRLSCAASGGTFTNYAMAWFRQTPGNDREFVGIISQKGGRTYYADSVKGRFSVSRDNAKNTAYLQMNSLKPEDTAVYYCAAGDSSYYYTRSRYDIWGQGTQVTVSS next?
Response given: 6.64

Challenge: Can you check SLP_VHH22 (VHH, From an immune llama phage display library panned on QCD-32g58 SLP; source: monomeric SEC fractions for SPR; not shown: His6, C-terminal, kept) VHH: QVQLVESGGGLVQPGGSLRLSCAASGFTLDSYAIGWFRQAPGKEHEGISCISSNGGSTYYTDSVKGRFTISRDNAKNTVYLQMNSLESEDSAVYYCATVRRCSSLDMALGALATRTKGYDYWGQGTQVTVSS next?
Response given: 6.74
